Value source: paper PMC2791876

This section lists Ki readings for mammalian facilitative glucose transporter 1 (GLUT1) (Homo sapiens, UniProt P11166).

Recorded results for 2 compounds are shown here.
O=C(O[C@@H]1Cc2c(O)cc(O)cc2O[C@@H]1c1ccc(O)c(O)c1)c1cc(O)c(O)c(O)c1 [ECG, (−)-epicatechin-gallate]    68 µM
Oc1cc(O)c2c(c1)O[C@H](c1cc(O)c(O)c(O)c1)[C@H](O)C2 [EGC, (−)-epigallocatechin]    > 500 µM

Next item in the queue.
May I ask what Ki has been recorded for Oc1cc(O)c2c(c1)O[C@H](c1ccc(O)c(O)c1)[C@H](O)C2 [EC, (−)-epicatechin] ?
~500 µM

----------
Reported Ki values follow for various compounds
- targetSystem: Babesia bovis hexose transporter 1 (BboHT1) (Babesia bovis)
- Sequence (B0LKY8 entry or part of it): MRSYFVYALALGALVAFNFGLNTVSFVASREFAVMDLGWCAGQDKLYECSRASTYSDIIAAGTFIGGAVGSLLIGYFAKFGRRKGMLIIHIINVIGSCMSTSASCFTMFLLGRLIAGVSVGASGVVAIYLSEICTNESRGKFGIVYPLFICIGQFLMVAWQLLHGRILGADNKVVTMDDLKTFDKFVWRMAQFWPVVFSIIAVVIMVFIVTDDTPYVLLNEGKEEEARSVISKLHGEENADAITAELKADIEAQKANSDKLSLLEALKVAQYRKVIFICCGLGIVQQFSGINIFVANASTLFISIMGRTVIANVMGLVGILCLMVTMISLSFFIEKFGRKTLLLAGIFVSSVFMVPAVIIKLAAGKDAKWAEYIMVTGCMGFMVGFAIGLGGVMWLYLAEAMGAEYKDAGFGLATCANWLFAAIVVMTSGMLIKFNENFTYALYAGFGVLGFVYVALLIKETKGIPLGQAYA
The figure you give is taken to be in µM; do not add the unit.

Oc1cc(O)c2c(c1)O[C@H](c1cc(O)c(O)c(O)c1)[C@H](O)C2 [EGC, (−)-epigallocatechin]    168

Next item in the queue.
May I ask what Ki has been recorded for Oc1cc(O)c2c(c1)O[C@H](c1ccc(O)c(O)c1)[C@H](O)C2 [EC, (−)-epicatechin] ?
108

----------
This section lists Ki readings for UniProt:O97467.
Sequence (O97467 1-504): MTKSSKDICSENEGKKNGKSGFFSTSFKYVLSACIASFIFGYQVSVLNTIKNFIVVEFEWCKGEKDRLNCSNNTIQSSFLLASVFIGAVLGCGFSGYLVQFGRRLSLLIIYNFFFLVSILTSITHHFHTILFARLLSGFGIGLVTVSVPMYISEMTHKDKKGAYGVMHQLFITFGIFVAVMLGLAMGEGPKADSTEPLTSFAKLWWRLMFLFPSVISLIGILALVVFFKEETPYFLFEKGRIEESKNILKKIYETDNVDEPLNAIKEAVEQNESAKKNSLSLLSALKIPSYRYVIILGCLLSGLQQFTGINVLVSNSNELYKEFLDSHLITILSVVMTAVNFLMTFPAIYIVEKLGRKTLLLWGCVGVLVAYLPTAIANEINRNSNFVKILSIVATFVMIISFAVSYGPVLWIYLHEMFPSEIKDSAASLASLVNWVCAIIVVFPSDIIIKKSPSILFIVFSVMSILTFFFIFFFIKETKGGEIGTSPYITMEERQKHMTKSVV

Oc1cc(O)c2c(c1)O[C@H](c1cc(O)c(O)c(O)c1)[C@H](O)C2 [EGC, (−)-epigallocatechin]    > 500 µM
Oc1cc(O)c2c(c1)O[C@H](c1ccc(O)c(O)c1)[C@H](O)C2 [EC, (−)-epicatechin]    > 500 µM

Next item in the queue.
May I ask what Ki has been recorded for O=C(O[C@@H]1Cc2c(O)cc(O)cc2O[C@@H]1c1ccc(O)c(O)c1)c1cc(O)c(O)c(O)c1 [ECG, (−)-epicatechin-gallate] ?
45 µM
